# Assay: Primary salt screen: XRPD pattern after drying and after 40° C./75% RH
# Type: physicochemical
# Stated Conditions: oven at 40° C. for about 24 hours
Counter-ions that a name gives are not always drawn.
Assay Metric: Post-Drying (XRPD pattern)

molecule="Cn1ncc2c1Nc1ccccc1NC2 [Napsylate pattern 1]" reported_result="Pattern 1"
molecule="Cn1ncc2c1Nc1ccccc1NC2 [Tosylate pattern 2]" reported_result="Pattern 2"
molecule="Cn1ncc2c1Nc1ccccc1NC2 [Sulfate pattern 3]" reported_result="Pattern 3"
molecule="Cn1ncc2c1Nc1ccccc1NC2 [Esylate pattern 2]" reported_result="Pattern 2"
molecule="Cn1ncc2c1Nc1ccccc1NC2 [Napsylate pattern 2]" reported_result="Pattern 2"
molecule="Cn1ncc2c1Nc1ccccc1NC2 [Napadisylate pattern 1]" reported_result="Pattern 1"
molecule="Cn1ncc2c1Nc1ccccc1NC2 [Mesylate pattern 1]" reported_result="Pattern 1"
molecule="Cn1ncc2c1Nc1ccccc1NC2 [Napadisylate pattern 2]" reported_result="Pattern 2"
molecule="Cn1ncc2c1Nc1ccccc1NC2 [Sulfate pattern 2]" reported_result="Pattern 2"
molecule="Cn1ncc2c1Nc1ccccc1NC2 [Tosylate pattern 1]" reported_result="Pattern 1"
molecule="Cn1ncc2c1Nc1ccccc1NC2 [Isethionate pattern 1]" reported_result="Pattern 1"
molecule="Cn1ncc2c1Nc1ccccc1NC2 [Hydrobromide pattern 1]" reported_result="Pattern 1"
molecule="Cn1ncc2c1Nc1ccccc1NC2 [Hydrobromide pattern 2]" reported_result="Pattern 2"
molecule="Cn1ncc2c1Nc1ccccc1NC2 [Mesylate pattern 3]" reported_result="Pattern 3"
molecule="Cn1ncc2c1Nc1ccccc1NC2 [Sulfate pattern 1]" reported_result="Pattern 1"
molecule="Cn1ncc2c1Nc1ccccc1NC2 [Edisylate pattern 2]" reported_result="Pattern 2"
molecule="Cn1ncc2c1Nc1ccccc1NC2 [Tosylate pattern 3]" reported_result="Pattern 3"
molecule="Cn1ncc2c1Nc1ccccc1NC2 [Besylate pattern 1]" reported_result="Pattern 1"
molecule="Cn1ncc2c1Nc1ccccc1NC2 [Maleate pattern 1]" reported_result="Pattern 1"
molecule="Cn1ncc2c1Nc1ccccc1NC2 [Mesylate pattern 2]" reported_result="Pattern 2"
molecule="Cn1ncc2c1Nc1ccccc1NC2 [Edisylate pattern 1]" reported_result="Pattern 1"
molecule="Cn1ncc2c1Nc1ccccc1NC2 [Isethionate pattern 2]" reported_result="Pattern 2"
molecule="Cn1ncc2c1Nc1ccccc1NC2 [Esylate pattern 1]" reported_result="Pattern 1"

---

# Assay: Solvent solubility screen of phosphate salt
# Format: physicochemical
# Stated Conditions: ethanol/water Aw 0.7, 40 °C, organic solvent or mixture, thermodynamic from solid, Ethanol/water Aw 0.7; read-out: Approx. Solubility
Assay Metric: solubility

compound="Cn1ncc2c1Nc1ccccc1NC2 [phosphate pattern 2]" reported_result="< 5 mg/mL"

---

# Assay: Solvent solubility screen of phosphate salt
# Type: physicochemical
# Stated Conditions: ethyl formate, 40 °C, organic solvent or mixture, thermodynamic from solid, Ethyl formate; read-out: Approx. Solubility
Assay Metric: solubility

molecule="Cn1ncc2c1Nc1ccccc1NC2 [phosphate pattern 2]" reported_result="< 5000 µg/mL"

---

# Assay: Oral pharmacokinetics in rats
# Type: in vivo
# Stated Conditions: male, Sprague Dawley, rat, plasma, po, 5 mg/kg, 5 mg/kg target dose (freebase equivalent), Saline, mean ± SD, n = 3
Structures can show the parent of a compound that is named as a salt.
Assay Metric: Cmax (ng/mL)

compound="Cn1ncc2c1Nc1ccccc1NC2 [Di-hydrochloride salt, dihydrochloride]" reported_result=2930

---

# Assay: Solvent solubility screen of phosphate salt
# Assay type: physicochemical
# Stated Conditions: 1,4-dioxane, 40 °C, organic solvent or mixture, thermodynamic from solid, 1,4-Dioxane; read-out: Approx. Solubility
Assay Metric: solubility

molecule="Cn1ncc2c1Nc1ccccc1NC2 [phosphate pattern 2]" reported_result="< 5000 µg/mL"

---

# Assay: Primary salt screen: XRPD pattern after drying and after 40° C./75% RH
# Format: physicochemical
# Stated Conditions: stability chamber at 40° C./75% RH for about 24 hours
Structures can show the parent of a compound that is named as a salt.
Assay Metric: Post 40° C./75% RH (XRPD pattern)

compound="Cn1ncc2c1Nc1ccccc1NC2 [Hydrobromide pattern 2]" assay_metric="Post 40° C./75% RH (XRPD pattern)" reported_result="Pattern 2"
compound="Cn1ncc2c1Nc1ccccc1NC2 [Tosylate pattern 3]" assay_metric="Post 40° C./75% RH (XRPD pattern)" reported_result="Pattern 3"
compound="Cn1ncc2c1Nc1ccccc1NC2 [Esylate pattern 2]" assay_metric="Post 40° C./75% RH (XRPD pattern)" reported_result="Pattern 2"
compound="Cn1ncc2c1Nc1ccccc1NC2 [Napadisylate pattern 2]" assay_metric="Post 40° C./75% RH (XRPD pattern)" reported_result="Pattern 2"
compound="Cn1ncc2c1Nc1ccccc1NC2 [Sulfate pattern 3]" assay_metric="Post 40° C./75% RH (XRPD pattern)" reported_result="Pattern 3"
compound="Cn1ncc2c1Nc1ccccc1NC2 [Edisylate pattern 2]" assay_metric="Post 40° C./75% RH (XRPD pattern)" reported_result="Pattern 2"
compound="Cn1ncc2c1Nc1ccccc1NC2 [Napsylate pattern 2]" assay_metric="Post 40° C./75% RH (XRPD pattern)" reported_result="Pattern 2"
compound="Cn1ncc2c1Nc1ccccc1NC2 [Edisylate pattern 1]" assay_metric="Post 40° C./75% RH (XRPD pattern)" reported_result="Pattern 2"

---

# Assay: Solvent solubility screen of phosphate salt
# Format: physicochemical
# Stated Conditions: isopropyl acetate, 40 °C, organic solvent or mixture, thermodynamic from solid, Isopropyl acetate; read-out: Approx. Solubility
Assay Metric: solubility

compound="Cn1ncc2c1Nc1ccccc1NC2 [phosphate pattern 2]" reported_result="< 5000 µg/mL"

---

# Assay: Oral pharmacokinetics in rats
# Type: in vivo
# Stated Conditions: male, Sprague Dawley, rat, plasma, po, 5 mg/kg, 5 mg/kg target dose (freebase equivalent), Methocel, mean ± SD, n = 3
Where a name gives a salt, the structure may show the parent alone.
Assay Metric: Cmax (ng/mL)

compound="Cn1ncc2c1Nc1ccccc1NC2 [Di-hydrochloride salt, dihydrochloride]" u=ng/mL reported_result=1800

---

# Assay: Solvent solubility screen of phosphate salt
# Assay type: physicochemical
# Stated Conditions: tert-butylmethyl ether, organic solvent or mixture, thermodynamic from solid, tert-Butylmethyl ether; read-out: Approx. Solubility
Assay Metric: solubility

compound="Cn1ncc2c1Nc1ccccc1NC2 [phosphate pattern 2]" reported_result="< 5000 µg/mL"

---

# Assay: Solvent solubility screen of phosphate salt
# Assay type: physicochemical
# Stated Conditions: 80% 2-propanol/20% water (% v/v), 40 °C, organic solvent or mixture, thermodynamic from solid, 80% 2-Propanol/20% water (% v/v); read-out: Approx. Solubility
Assay Metric: solubility

compound="Cn1ncc2c1Nc1ccccc1NC2 [phosphate pattern 2]" assay_metric=solubility reported_result="< 5000 µg/mL"

---

# Assay: Solvent solubility screen of phosphate salt
# Type: physicochemical
# Stated Conditions: ethyl acetate, 40 °C, organic solvent or mixture, thermodynamic from solid, Ethyl acetate; read-out: Approx. Solubility
Assay Metric: solubility

molecule="Cn1ncc2c1Nc1ccccc1NC2 [phosphate pattern 2]" reported_result="< 5000 µg/mL"

---

# Assay: Oral pharmacokinetics in rats
# Assay type: in vivo
# Stated Conditions: male, Sprague Dawley, rat, plasma, po, 5 mg/kg, 5 mg/kg target dose (freebase equivalent), Methocel, mean ± SD, n = 3, read-out: Plasma AUC0-inf
Where a name gives a salt, the structure may show the parent alone.
Assay Metric: AUC(0-inf) (ng·h/mL)

compound="Cn1ncc2c1Nc1ccccc1NC2 [Di-hydrochloride salt, dihydrochloride]" reported_result=4100

---

# Assay: Primary salt screen: XRPD pattern after drying and after 40° C./75% RH
# Type: physicochemical
# Stated Conditions: salt screen summary
Structures can show the parent of a compound that is named as a salt.
Assay Metric: Comments (stability)

compound="Cn1ncc2c1Nc1ccccc1NC2 [L-tartrate form 1]" reported_result=Good
compound="Cn1ncc2c1Nc1ccccc1NC2 [Phosphate form 1]" reported_result=Good
compound="Cn1ncc2c1Nc1ccccc1NC2 [Napadisylate pattern 1]" reported_result=Good
compound="Cn1ncc2c1Nc1ccccc1NC2 [Tosylate pattern 1]" reported_result=Good
compound="Cn1ncc2c1Nc1ccccc1NC2 [Napsylate pattern 1]" reported_result=Good
compound="Cn1ncc2c1Nc1ccccc1NC2 [Hydrobromide pattern 1]" reported_result=Good
compound="Cn1ncc2c1Nc1ccccc1NC2 [Edisylate pattern 1]" reported_result=Good

---

# Assay: Solvent solubility screen of phosphate salt
# Type: physicochemical
# Stated Conditions: tetrahydrofuran, organic solvent or mixture, thermodynamic from solid, Tetrahydrofuran; read-out: Approx. Solubility
Assay Metric: solubility

compound="Cn1ncc2c1Nc1ccccc1NC2 [phosphate pattern 2]" assay_metric=solubility reported_result="< 5000 µg/mL"
